Source: patent US4711958A

- measured.on: renin (Homo sapiens)
- method: Renin inhibitory effect in a human high renin plasma
- Type: biochemical
- Set-up: 500 μl of human high renin plasma; from tissue; host or cells: human high renin plasma
- conditions.used: pH 7.0, 37° C., 60 minutes, read-out: IC50 (molar concentration producing a 50% inhibition)
For each record, write down the corresponding IC50.
Numbers only here, please. The scale is nM.

Name the recorded IC50 for CC(C)OC(=O)C(O)[C@H](CC1CCCCC1)NC(=O)[C@H](Cc1c[nH]cn1)NC(=O)C(CC(=O)N1CCOCC1)Cc1cccc2ccccc12 (mixture of isomers) . 10

Name the reported IC50 value associated with the compound CC(C)OC(=O)[C@H](O)[C@H](CC1CCCCC1)NC(=O)[C@H](Cc1c[nH]cn1)NC(=O)C(CC(=O)N1CCOCC1)Cc1cccc2ccccc12 (stereo partly shown) 4.7

Please report the recorded IC50 for CC(C)CNC(=O)C(O)[C@H](CC1CCCCC1)NC(=O)[C@H](Cc1c[nH]cn1)NC(=O)C(CC(=O)N1CCOCC1)Cc1cccc2ccccc12 (mixture of isomers) . 260

Report IC50 for O=C(N[C@@H](Cc1c[nH]cn1)C(=O)N[C@@H](CC1CCCCC1)C(O)C(=O)OC(CF)CF)C(CC(=O)N1CCOCC1)Cc1cccc2ccccc12 (mixture of isomers) please. 4.1

Recorded IC50 of O=C(N[C@@H](Cc1c[nH]cn1)C(=O)N[C@@H](CC1CCCCC1)C(O)C(=O)OC1CCCC1)C(CC(=O)N1CCOCC1)Cc1cccc2ccccc12 (mixture of isomers) , please. 6.8

Item O=C(N[C@@H](Cc1c[nH]cn1)C(=O)N[C@@H](CC1CCCCC1)C(O)C(=O)OC1CCCCC1)C(CC(=O)N1CCOCC1)Cc1cccc2ccccc12 (mixture of isomers) has what recorded IC50? 30

Name the recorded IC50 for O=C(N[C@@H](Cc1c[nH]cn1)C(=O)N[C@@H](CC1CCCCC1)C(O)C(=O)N1CCOCC1)C(CC(=O)N1CCOCC1)Cc1cccc2ccccc12 (mixture of isomers) . 130

* * *

- measured.on: renin (Homo sapiens, UniProt P00797)
- Sequence (P00797 67-406): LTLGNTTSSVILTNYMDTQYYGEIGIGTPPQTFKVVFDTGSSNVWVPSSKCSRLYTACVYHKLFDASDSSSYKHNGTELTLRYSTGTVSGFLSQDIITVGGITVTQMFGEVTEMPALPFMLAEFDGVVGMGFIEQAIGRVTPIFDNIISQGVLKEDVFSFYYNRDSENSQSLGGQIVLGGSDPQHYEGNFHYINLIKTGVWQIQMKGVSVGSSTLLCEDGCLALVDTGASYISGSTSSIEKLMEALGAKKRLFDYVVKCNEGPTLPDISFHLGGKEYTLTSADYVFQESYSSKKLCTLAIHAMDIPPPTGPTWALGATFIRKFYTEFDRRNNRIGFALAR
- method: Inhibitory effect on human renin-sheep renin substrate reaction system in vitro
- Type: biochemical
- conditions.used: pH 7.4, 37° C., 15 minutes, read-out: IC50 (molar concentration producing a 50% inhibition)
pIC50: −log10 of the molar value.
If the reported pIC50 equals or exceeds 8, assign T. If not, assign F.

Could you tell me if the measured pIC50 of CC(C)CNC(=O)C(O)[C@H](CC1CCCCC1)NC(=O)[C@H](Cc1c[nH]cn1)NC(=O)C(CC(=O)N1CCOCC1)Cc1cccc2ccccc12 (mixture of isomers) reaches 8 or more? F

Check the entry O=C(N[C@@H](Cc1c[nH]cn1)C(=O)N[C@@H](CC1CCCCC1)C(O)C(=O)OC(CF)CF)C(CC(=O)N1CCOCC1)Cc1cccc2ccccc12 (mixture of isomers) : does pIC50 equal or exceed 8? T

Dear colleague, could you confirm whether O=C(N[C@@H](Cc1c[nH]cn1)C(=O)N[C@@H](CC1CCCCC1)C(O)C(=O)N1CCOCC1)C(CC(=O)N1CCOCC1)Cc1cccc2ccccc12 (mixture of isomers) has pIC50 at or above 8? F

Given O=C(N[C@@H](Cc1c[nH]cn1)C(=O)N[C@@H](CC1CCCCC1)C(O)C(=O)OC1CCCC1)C(CC(=O)N1CCOCC1)Cc1cccc2ccccc12 (mixture of isomers) , state whether its pIC50 is at least 8. T

# bool: pIC50 of CC(C)OC(=O)[C@H](O)[C@H](CC1CCCCC1)NC(=O)[C@H](Cc1c[nH]cn1)NC(=O)C(CC(=O)N1CCOCC1)Cc1cccc2ccccc12 (stereo partly shown) >= 8 T
